Each recorded value in this set is attributed to patent US20210205260A1.

# EXPERIMENTAL DETAILS: Representative effective dose in humans (Table 16)
# Assay type: in vivo, human
# MEASUREMENT CONDITIONS: oral
VALUE KIND: Representative effective dose: Dose per day (mg/kg)
Just the number in mg/kg, nothing appended.

QUERY: Requested read-out: Representative effective dose: Dose per day. Entry: S=[As]S[As]=S (stereo not shown)
RESULT: 3.20

QUERY: Requested read-out: Representative effective dose: Dose per day. Entry: `S=[As](=S)S[As](=S)=S`
RESULT: 4.05

QUERY: Requested read-out: Representative effective dose: Dose per day. Entry: S=[As][As]=S (stereo not shown)
RESULT: 2.80

QUERY: Requested read-out: Representative effective dose: Dose per day. Entry: S1[As]2S[As]3S[As]2S[As]13 [As4S4, reference compound]
RESULT: 2.80
